- Test system: H. pylori strain #26695
- EXPERIMENTAL DETAILS: bactericidal effect of selected terpenes on H. pylori viability
- Assay type: cell-based, Helicobacter pylori
- Design: key: *NG = no growth; **TNTC = Too Numerous To Count
- CONDITION NOTES: final dilution 1:10000 of stock; 10^6 cfu; 24 hours
READOUT LABEL: H. pylori growth (cfu recovered)

Here's what some known entries look like.
{"COMPOUND": "C=C(C)C1CC=C(C)C(=O)C1 (centres unmarked)", "H. pylori growth (cfu recovered)": "TNTC"}
{"COMPOUND": "CC=Cc1ccc(OC)cc1", "H. pylori growth (cfu recovered)": "TNTC"}
{"COMPOUND": "CC(C)=CCCC(C)=CC=O", "H. pylori growth (cfu recovered)": "NG"}
{"COMPOUND": "CC(=O)/C=C/C1=C(C)CCCC1(C)C", "H. pylori growth (cfu recovered)": "NG"}

Incoming: Consider the compound shown here: `CC(C)=CCC/C(C)=C/CO` What is its recorded H. pylori growth (cfu recovered)?
Outgoing: 10^2 cfu
